Reported OD (PE binding ELISA) values are given for each entry in this list.
Molecular target: T1, human IL-2Rα (human, UniProt P01589 22-240, limits assumed)
T1 construct: recombinant protein; also called hu IL-2R; human IL-2Ra
T1 sequence: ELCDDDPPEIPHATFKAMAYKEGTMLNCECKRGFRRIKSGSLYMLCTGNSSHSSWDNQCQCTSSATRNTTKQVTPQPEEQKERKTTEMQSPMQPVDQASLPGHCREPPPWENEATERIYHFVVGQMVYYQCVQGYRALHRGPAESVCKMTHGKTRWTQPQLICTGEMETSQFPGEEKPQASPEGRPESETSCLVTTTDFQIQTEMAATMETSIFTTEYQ
Test: ELISA, P.E. on coated antigen
Give the number; OD450 nm is assumed, so skip it.

// below: answered binders
8-MP01C12 (VHH, periplasmic extract; also called FJ1427_P035MP01C12) VHH: QVQLVESGGGLVQPGGSLRLSCATSGFTFSNNFMSWVRQAPGKGLEFVSTISYGGESTTYAEAVKGRFTISRDNAKNTLYLQMNNLKPEDTAIYYCAKATSYTSIRGAPRGQGTQVTVSS	2.53
FJ1427_P035MP01D09 (VHH, periplasmic extract; also called clone nr; 68) VHH: QVQLVESGGGLVQPGGSLRLSCAASGFTFSNNFMSWVRQAPGKGLEWVSTISYGGESTTYAESVKGRFTISRDNAKNTLYLQMNNLKPEDTAVYYCAKATSYDSIRSGSRGQGTQVTVSS	2.57
10-MP05F03 (VHH, periplasmic extract; also called FJ1427_P035MP05F03) VHH: QVQLVESGGGLVQAGGSLRLSCAASGIPFDNYAMGWFRQAPGKEREFVAARDLEGIITRYGDSVKGRFTISRGNAKNTVFLQMNSLKPEDTAVYYCAARDGGVVAGSRSSAQYNYWGQGTQVTVSS	2.46
FJ1427_P035MP01G07 (VHH, periplasmic extract; also called clone nr; 55) VHH: QVQLVESGGGLVQTGDSLRLSCAASGRSFRNYILAWYRQAPGKEREFLAAISWLDGTLYADSVEGRFTISRDNPKNTVHLQMDSLKPEDTAVYYCAADRGPVRPVLAPDVDYWGQGTQVTVSS	2.75
FJ1427_P035MP01D08 (VHH, periplasmic extract; also called clone nr; 60) VHH: EVQLVESGGGLVQAGGSLRLSCAASGGTFRTRNMGWFRRAPGKEREFVAAVSWNVDNKLYAGSVKGRFTISRDNGRNMVYLQMNSLKPEDTAVYYCAADNIPLSSDMRPTATEYDYWGQGTQVTVSS	2.62
FJ1427_P035MP01F03 (VHH, periplasmic extract; also called clone nr; 22) VHH: QVQLVESGGGLVQPGGSLRLSCAASGFTFSNNFMSWVRQAPGKGLEWVSTISYGGESTTYAESVKGRFTISRDNAKNTLYLQMNNLKPEDTAVYYCAKATSYDSVRSGSRGQGTQVTVSS	2.87
FJ1427_P035MP01F06 (VHH, periplasmic extract; also called clone nr; 46) VHH: QLQLVESGGGLVQAGGSLRLSCAASGGAFSRYAVGWFRMAPGKGREFVSAIDLSGTNTHVLDSVKGRFTISRDNDKNTAYLQMDKLQPEDTAVYWCAATSSSYSDYEANYNIWGQGTQVTVSS	2.71

Now consider a different binder.
Q: Quick one: OD (PE binding ELISA) of FJ1427_P035MP05C09 (VHH, periplasmic extract; also called clone nr) VHH: QLQLVESGGGLVQAGGSLRLSCAASGFTFDGYAIGWFRQAPGKEREGVSYITGSDGSTYYADSVKGRFTISSNNAKNTVYLHMNSLKPDDAAVYYCAIDRLGSRGAYVPIWWRSSDMDLWGKGTLVTVSS ?
A: 0.366
